Biological target: AmpC β-lactamase (Escherichia coli)
Experiment: AmpC β-lactamase inhibition, steady-state competition with cephalothin
experimental.readout: pKi
API: returns pKi as number; meaning -log10 of concentration in mol/L.

Tell me measured pKi for CC1(C)SC(C(NC(=O)Cc2ccccc2)B(O)O)NC1C(=O)O (stereo not shown) [compound 12] please. 5.89

* * *

Molecular target: class C P99 β-lactamase (Enterobacter cloacae, UniProt P05364)
Sequence (P05364 21-381): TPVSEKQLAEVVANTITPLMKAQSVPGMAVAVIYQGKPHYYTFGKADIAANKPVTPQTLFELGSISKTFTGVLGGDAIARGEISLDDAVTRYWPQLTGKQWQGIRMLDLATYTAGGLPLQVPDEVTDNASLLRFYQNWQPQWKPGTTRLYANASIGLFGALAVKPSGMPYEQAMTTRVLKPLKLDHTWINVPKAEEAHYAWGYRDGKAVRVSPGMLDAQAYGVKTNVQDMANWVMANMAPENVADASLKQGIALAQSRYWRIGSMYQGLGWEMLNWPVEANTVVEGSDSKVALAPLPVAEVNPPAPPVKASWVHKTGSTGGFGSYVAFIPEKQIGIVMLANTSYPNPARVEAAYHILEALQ
Test: P99 β-lactamase inhibition, steady-state competition with cephalothin
experimental.readout: Ki (nM)
Could you give me the number in nM? Just the number is fine.

Could you please provide reported Ki for CC1(C)SC(C(NC(=O)Cc2ccccc2)B(O)O)NC1C(=O)O (stereo not shown) ? Thanks! 950
